Tested on: S. aureus ATCC 29213
measure: MIC (µg/mL)
Reply with just the number (in µg/mL).

Example entries and their recorded answers appear below.
CCc1[nH]c(C(=O)N[C@@H]2CCN(c3nnc([C@H](C)O)s3)C[C@@H]2OC)nc1Cl (single isomer, unassigned) [Compound No. 5] | 0.5
CCc1[nH]c(C(=O)N[C@@H]2CCN(c3nnc(C(C)(O)CO)s3)C[C@@H]2OC)nc1Cl (stereo in doubt) [Compound No. 10] | 1
CCc1[nH]c(C(=O)N[C@@H]2CCN(c3nnc(C(C)O)s3)C[C@@H]2OC)nc1Cl (mixture of isomers) [Compound No. 3] | 0.5
CCc1[nH]c(C(=O)N[C@@H]2CCN(c3nnc(C(O)CO)s3)C[C@@H]2OC)nc1Cl (stereo in doubt) [Compound No. 8] | 4

# context switch: different compound, same MIC
Ask | Need MIC, item CCc1[nH]c(C(=O)N[C@@H]2CCN(c3nnc(C(C)CO)s3)C[C@@H]2OC)nc1Cl (some centres unmarked) [Compound No. 6]
Reply | 0.5

---

Here we list compounds with their recorded MIC when tested on P. acnes IHMA 775486.
Reply with just the number (in µg/mL).

Example entries and their recorded answers appear below.
CCc1[nH]c(C(=O)N[C@@H]2CCN(c3nnc(C(C)(C)O)s3)C[C@@H]2OC)nc1Cl | 0.125
CCc1[nH]c(C(=O)N[C@@H]2CCN(c3nnc(C(O)CO)s3)C[C@@H]2OC)nc1Cl (stereo in doubt) [Compound No. 9] | 0.125
CCc1[nH]c(C(=O)N[C@@H]2CCN(c3nnc(C(O)CO)s3)C[C@@H]2OC)nc1Cl (stereo in doubt) [Compound No. 8] | 0.25

Ask | Need MIC, item CCc1[nH]c(C(=O)N[C@@H]2CCN(c3nnc(C(C)CO)s3)C[C@@H]2OC)nc1Cl (some centres unmarked)
Reply | 0.25

Ask | Need MIC, item CCc1[nH]c(C(=O)N[C@@H]2CCN(c3nnc(C(C)(O)CO)s3)C[C@@H]2OC)nc1Cl (stereo in doubt)
Reply | 0.125

---

Assay: Solubility in water (JP1 / JP2 fluids)
Type: physicochemical
Settings: Japanese Pharmacopeia First Fluid (JP1), pH 1.2, simulated gastric fluid, thermodynamic from solid; read-out: Solubility JP1
measure: solubility at 30 min (µg/mL)
Reply with just the number (in µg/mL).

Example entries and their recorded answers appear below.
CCc1[nH]c(C(=O)N[C@@H]2CCN(c3nnc(C(O)CO)s3)C[C@@H]2OC)nc1Cl (stereo in doubt) [Compound No. 9] | 862
CCc1[nH]c(C(=O)N[C@@H]2CCN(c3nnc([C@@H](C)O)s3)C[C@@H]2OC)nc1Cl (single isomer, unassigned) | 612
CCc1[nH]c(C(=O)N[C@@H]2CCN(c3nnc(C(C)(C)O)s3)C[C@@H]2OC)nc1Cl | 706
CCc1[nH]c(C(=O)N[C@@H]2CCN(c3nnc(C(O)CO)s3)C[C@@H]2OC)nc1Cl (stereo in doubt) [Compound No. 8] | 728
CCc1[nH]c(C(=O)N[C@@H]2CCN(c3nnc(C(C)(O)CO)s3)C[C@@H]2OC)nc1Cl (stereo in doubt) [Compound No. 10] | 887

Ask | Need solubility at 30 min, item CCc1[nH]c(C(=O)N[C@@H]2CCN(c3nnc(C(C)(O)CO)s3)C[C@@H]2OC)nc1Cl (stereo in doubt) [Compound No. 11]
Reply | 884

Ask | Need solubility at 30 min, item CCc1[nH]c(C(=O)N[C@@H]2CCN(c3nnc([C@H](C)O)s3)C[C@@H]2OC)nc1Cl (single isomer, unassigned)
Reply | 680

---

Here we list compounds with their recorded MIC when tested on P. acnes ATCC 6921.
Reply with just the number (in µg/mL).

CCc1[nH]c(C(=O)N[C@@H]2CCN(c3nnc(C(O)CO)s3)C[C@@H]2OC)nc1Cl (stereo in doubt) [Compound No. 9] | 0.125
CCc1[nH]c(C(=O)N[C@@H]2CCN(c3nnc(C(C)(O)CO)s3)C[C@@H]2OC)nc1Cl (stereo in doubt) | 0.125
CCc1[nH]c(C(=O)N[C@@H]2CCN(c3nnc(C(C)CO)s3)C[C@@H]2OC)nc1Cl (some centres unmarked) | 0.125
CCc1[nH]c(C(=O)N[C@@H]2CCN(c3nnc(C(O)CO)s3)C[C@@H]2OC)nc1Cl (stereo in doubt) [Compound No. 8] | 0.25

# context switch: different compound, same MIC
Ask | Missing value: MIC, P. acnes ATCC 6921, entry CCc1[nH]c(C(=O)N[C@@H]2CCN(c3nnc(C(C)(C)O)s3)C[C@@H]2OC)nc1Cl . Fill in?
Reply | 0.125

---

Assay: Solubility in water (JP1 / JP2 fluids)
Format: physicochemical
Settings: Japanese Pharmacopeia Second Fluid (JP2), pH 6.8, aqueous buffer, thermodynamic from solid; read-out: Solubility JP2
Use 300 µg/mL as the dividing line for solubility at 30 min, with the line itself on the T side and lower values as F.

CCc1[nH]c(C(=O)N[C@@H]2CCN(c3nnc([C@H](C)O)s3)C[C@@H]2OC)nc1Cl (single isomer, unassigned) | T
CCc1[nH]c(C(=O)N[C@@H]2CCN(c3nnc(C(C)(O)CO)s3)C[C@@H]2OC)nc1Cl (stereo in doubt) [Compound No. 10] | T

Ask | Textbook exercise: given the entry CCc1[nH]c(C(=O)N[C@@H]2CCN(c3nnc(C(O)CO)s3)C[C@@H]2OC)nc1Cl (stereo in doubt) [Compound No. 8] , state whether its solubility at 30 min is greater than or equal to 300 µg/mL.
Reply | F

Ask | Textbook exercise: given the entry CCc1[nH]c(C(=O)N[C@@H]2CCN(c3nnc(C(C)(O)CO)s3)C[C@@H]2OC)nc1Cl (stereo in doubt) [Compound No. 11] , state whether its solubility at 30 min is greater than or equal to 300 µg/mL.
Reply | F

Ask | Textbook exercise: given the entry CCO[C@H]1CN(c2nnc(C(C)(C)O)s2)CC[C@H]1NC(=O)c1nc(Cl)c(CC)[nH]1 , state whether its solubility at 30 min is greater than or equal to 300 µg/mL.
Reply | T

Ask | Textbook exercise: given the entry CCc1[nH]c(C(=O)N[C@@H]2CCN(c3nnc(C(C)(C)O)s3)C[C@@H]2OC)nc1Cl , state whether its solubility at 30 min is greater than or equal to 300 µg/mL.
Reply | F

Ask | Textbook exercise: given the entry CCc1[nH]c(C(=O)N[C@@H]2CCN(c3nnc(C(O)CO)s3)C[C@@H]2OC)nc1Cl (stereo in doubt) [Compound No. 9] , state whether its solubility at 30 min is greater than or equal to 300 µg/mL.
Reply | F

---

Test system: S. aureus ATCC 29213
measure: MIC (µg/mL)
Reply with just the number (in µg/mL).

CCc1[nH]c(C(=O)N[C@@H]2CCN(c3nnc([C@@H](C)O)s3)C[C@@H]2OC)nc1Cl (single isomer, unassigned) | 0.5
CCO[C@H]1CN(c2nnc(C(C)O)s2)CC[C@H]1NC(=O)c1nc(Cl)c(CC)[nH]1 (stereo partly drawn) | 0.5

# context switch: different molecule, same MIC
Ask | Missing value: MIC, S. aureus ATCC 29213, entry CCc1[nH]c(C(=O)N[C@@H]2CCN(c3nnc(C(O)CO)s3)C[C@@H]2OC)nc1Cl (stereo in doubt) [Compound No. 9] . Fill in?
Reply | 4

---

Here we list compounds with their recorded MIC when tested on S. aureus ATCC 29213.
Reply with just the number (in µg/mL).

CCc1[nH]c(C(=O)N[C@@H]2CCN(c3nnc(C(C)(C)O)s3)C[C@@H]2OC)nc1Cl | 0.25
CCc1[nH]c(C(=O)N[C@@H]2CCN(c3nnc(C(C)(O)CO)s3)C[C@@H]2OC)nc1Cl (stereo in doubt) [Compound No. 11] | 1

Ask | Need MIC, item CCO[C@H]1CN(c2nnc(C(C)(C)O)s2)CC[C@H]1NC(=O)c1nc(Cl)c(CC)[nH]1
Reply | 0.5
